Values were extracted from the RNAGym collection of RNA variant scans (doi:10.1073/pnas.2313332121).

The following variants are listed with their measured polymerase ribozyme fitness (log ratio) values.
B1: TPR 5TU (parent)
chain: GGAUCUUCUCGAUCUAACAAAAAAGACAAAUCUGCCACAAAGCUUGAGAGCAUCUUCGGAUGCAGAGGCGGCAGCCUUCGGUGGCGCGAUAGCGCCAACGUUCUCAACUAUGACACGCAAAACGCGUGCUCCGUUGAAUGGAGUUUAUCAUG

Variants of: B1
Assay: polymerase ribozyme fitness, log enrichment relative to wild type (log ratio); higher = more active; in vitro selection for triplet polymerase activity
Variants at the floor of the assay were thinned out.

{"columns": ["Mutation Key", "Qualifier Operator", "polymerase ribozyme fitness (log ratio)"],
 "data": [
  ["U9A A20C A26G A28U G67U U82C U90G G124A U134C U146A", "≤", -4.2],
  ["G136U U144G", "=", -3.29],
  ["C54U G83U C85A U90G", "≤", -4.2],
  ["G71U G84U U101C G117U C123U", "=", -4.15],
  ["A97U U139A U144A", "=", -4.08],
  ["A47G C54G", "=", -0.785],
  ["U139G U148A", "=", -2.73],
  ["C54U C57A C75U A91G", "=", -3.62],
  ["C18G A24G C57U C93G G94C G117C", "≤", -4.2],
  ["C14A G59A G84A A106G C125G U148C C149U", "≤", -4.2],
  ["A29G U33C G141A U145A", "≤", -4.2],
  ["A73U C85A", "=", -2.44],
  ["C14A U135A A142C", "=", -3.9],
  ["U44A A47U C72G G86C A91C", "≤", -4.2],
  ["A49U U53A G86A C87A A89G C114U", "≤", -4.2],
  ["A12G A91G A106G", "=", -2.04],
  ["A29G U55G C57G C87A A107G", "≤", -4.2],
  ["C69G C103A U144G", "=", -1.57],
  ["G42A U44G U56A G81C C85A G117U", "≤", -4.2],
  ["G74A A150U", "=", -2.61],
  ["C35U G50C C76A C79G C87G A142C G152U", "≤", -4.2],
  ["C5U A28C U56A U77C G94A", "≤", -4.2],
  ["G50C U53A C57G A73G C93A C95A U101G A107G A138C U144C", "≤", -4.2],
  ["A22U A37C G83C C114G", "=", -3.92],
  ["A47C C95U C96U C118U C131U", "=", -1.83],
  ["A20U C54A A106C", "=", -3.99],
  ["G25U C32U C36A C85U C114U C129U U134C", "≤", -4.2],
  ["A16C U45G A106G", "=", -0.613],
  ["A52U G59C A91U", "≤", -4.2],
  ["A3G G71U C96A A107G C116U C125G", "≤", -4.2],
  ["U127G A137U", "=", -4.19],
  ["A16U G58U C69U U78G G80C C96A G141U", "≤", -4.2],
  ["C14G A20G C75A C96G G141C", "≤", -4.2],
  ["C14A A20C C96U", "=", -1.32],
  ["G68C A122C", "≤", -4.2],
  ["C72A U78G C85U A97U G140C", "≤", -4.2],
  ["G62A C85A U151C", "≤", -4.2],
  ["C99U C149U", "=", -1.17],
  ["A21C A142C", "=", 0.655],
  ["G48A G50A C54A C93G U104A", "≤", -4.2],
  ["U9G A21C C35U C85G", "≤", -4.2],
  ["U55A U82C", "=", -0.191],
  ["A20U U53A A120G", "=", -2.23],
  ["G42A A49G A64G A107U C114U", "≤", -4.2],
  ["G46U U56A", "=", -0.107],
  ["A37C U53A U78A C85A", "≤", -4.2]
]}
